biological target: T1, HLA-A*0201 molecule expressed on human T2 cells (human); test: T2 cell HLA-A*0201 binding assay, anti-HLA-A2-PE flow cytometry
T1 construct: surface HLA-A2 detected with anti-HLA-A2-PE (clone REA517); also called HLA-A2
So basically: is concentration of peptide that induces 20% of HLA-A2 expression under 0.7 µM? Then Fulfilled. Not under? Then Not fulfilled.

binder | assigned_class
YLYDVRTAL (also called ENT168_B2) [UBE2C-B11] | Not fulfilled
AVYSEILSV (also called ENT169-H) [ANKRD30A-H1] | Fulfilled

# strict comparison: is reported concentration of peptide that induces 20% of HLA-A2 expression < 0.7 µM? input = LVIGIILAV (also called ENT176-H) [CDH17-H1]
Not fulfilled

Is the reported concentration of peptide that induces 20% of HLA-A2 expression for KVWSDVTPL [MMP11-H1] strictly below 0.7 µM?
Fulfilled

A record lists VMNPELLLL (also called ENT207_B3) [KIF2C-B12] . Is its concentration of peptide that induces 20% of HLA-A2 expression below 0.7 µM?
Fulfilled

Quick check: concentration of peptide that induces 20% of HLA-A2 expression of SLLSIQSYV (also called ENT172_B1) [UBE2C-B2] under 0.7 µM?
Fulfilled

API: query returns whether the binder falls strictly under 0.7 µM in concentration of peptide that induces 20% of HLA-A2 expression. Query: AQIGIVAVV [OR51E2-H1]
Not fulfilled

I'd appreciate it if you could check whether VLNPELLML (also called ENT207_B4) [KIF2C-B13] has concentration of peptide that induces 20% of HLA-A2 expression smaller than 0.7 µM.
Fulfilled
